Documented Signal [10 nM Fab] across a set of binders
system under test: T1, Recombinant Human DLL4 (delta-like protein 4) (human, UniProt Q9NR61 27-524)
T1 construct: also called rHuman DLL4
test protocol: ECL (Meso Scale Discovery) binding assay on immobilised DLL4, Fab 10 nM
quantity name: Signal [10 nM Fab]

binder	reading
Fab VH1-46_IGHD6-6*01_IGHJ1*01 S102A/S103P/S104F/H111F (APFF) & L6_IGKJ1*01 S76L (Fab, V domains shown, Fab made in E. coli: VH in plasmid A (CH1, His6 and Flag tags), VL in plasmid C (kappa CL); also called H:APFF & L6_IGKJ1*01 S76L) VH: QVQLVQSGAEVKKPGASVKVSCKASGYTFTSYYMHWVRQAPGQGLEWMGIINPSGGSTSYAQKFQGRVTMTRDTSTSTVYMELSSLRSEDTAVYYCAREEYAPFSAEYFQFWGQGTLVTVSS VL: EIVLTQSPATLSLSPGERATLSCRASQSVSSYLAWYQQKPGQAPRLLIYDASNRATGIPARFSGSGSGTDFTLTILSLEPEDFAVYYCQQRSNWPPWTFGQGTKVEIKR	13700
Fab VH1-46_IGHD6-6*01_IGHJ1*01 S102A/S103P/S104F/H111F (APFF) & L6_IGKJ1*01 S76Y (Fab, V domains shown, Fab made in E. coli: VH in plasmid A (CH1, His6 and Flag tags), VL in plasmid C (kappa CL); also called H:APFF & L6_IGKJ1*01 S76Y) VH: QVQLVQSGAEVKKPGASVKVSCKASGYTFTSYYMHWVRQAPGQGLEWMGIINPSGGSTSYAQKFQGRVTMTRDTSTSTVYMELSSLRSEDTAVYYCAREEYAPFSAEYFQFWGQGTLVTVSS VL: EIVLTQSPATLSLSPGERATLSCRASQSVSSYLAWYQQKPGQAPRLLIYDASNRATGIPARFSGSGSGTDFTLTIYSLEPEDFAVYYCQQRSNWPPWTFGQGTKVEIKR	14800
Fab VH1-46_IGHD6-6*01_IGHJ1*01 S102A/S103P/S104F/H111F (APFF) & L6_IGKJ1*01 S76T (Fab, V domains shown, Fab made in E. coli: VH in plasmid A (CH1, His6 and Flag tags), VL in plasmid C (kappa CL); also called H:APFF & L6_IGKJ1*01 S76T) VH: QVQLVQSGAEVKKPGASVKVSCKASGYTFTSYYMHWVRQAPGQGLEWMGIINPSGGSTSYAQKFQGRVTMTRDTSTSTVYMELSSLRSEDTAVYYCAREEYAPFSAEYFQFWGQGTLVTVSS VL: EIVLTQSPATLSLSPGERATLSCRASQSVSSYLAWYQQKPGQAPRLLIYDASNRATGIPARFSGSGSGTDFTLTITSLEPEDFAVYYCQQRSNWPPWTFGQGTKVEIKR	15700
Fab VH1-46_IGHD6-6*01_IGHJ1*01 S102A/S103P/S104F/H111F (APFF) & L6_IGKJ1*01 S76G (Fab, V domains shown, Fab made in E. coli: VH in plasmid A (CH1, His6 and Flag tags), VL in plasmid C (kappa CL); also called H:APFF & L6_IGKJ1*01 S76G) VH: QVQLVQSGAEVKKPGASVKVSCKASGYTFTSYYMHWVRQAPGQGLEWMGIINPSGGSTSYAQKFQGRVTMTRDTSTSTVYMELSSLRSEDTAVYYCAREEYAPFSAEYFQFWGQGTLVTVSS VL: EIVLTQSPATLSLSPGERATLSCRASQSVSSYLAWYQQKPGQAPRLLIYDASNRATGIPARFSGSGSGTDFTLTIGSLEPEDFAVYYCQQRSNWPPWTFGQGTKVEIKR	13400

The measured values listed here are drawn from patent US20120316071A1.
